Task for the reader: assign each of the following variants its reported aptazyme ON/OFF ratio.
B1: Pistol ribozyme (parent)
chain: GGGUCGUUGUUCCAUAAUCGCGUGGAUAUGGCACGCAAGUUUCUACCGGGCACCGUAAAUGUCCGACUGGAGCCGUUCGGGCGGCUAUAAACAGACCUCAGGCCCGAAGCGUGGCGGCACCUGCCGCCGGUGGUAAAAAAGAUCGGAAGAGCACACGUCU

variants of: B1; assay: aptazyme ON/OFF ratio, guanine; higher = stronger switching; co-transcriptional cleavage with and without guanine
Answers are plain numbers.

Before answering, review these 5 worked examples.
>>> recorded_result("U8A G9A U11C C12G C13G")
1.15
>>> recorded_result("U8A G9U U10A C13G")
1.1
>>> recorded_result("U7A U8C G9U U10A U11G C12A")
1.07
>>> recorded_result("G9C U10C")
1.52
>>> recorded_result("U7G G9U C12A")
1.97

Hi there! I need aptazyme ON/OFF ratio for each item below, if you can.
1. U8C U10A C12U C13G
2. U7G U8A G9C U10C C12U C13A
3. U7C U8A G9A U10G C12G C13G
4. U8C G9U U10A U11C C12G
5. U7A U8G G9C C12A C13G
6. G9U U10C U11G C12G C13G

**A:**
1: 1.11; 2: 1.04; 3: 1.04; 4: 1.21; 5: 1.16; 6: 1.24

Hi there! I need aptazyme ON/OFF ratio for each item below, if you can.
1. G9C U11A C13A
2. U7A U8C G9A U10C C12A C13U
3. U10C U11G C12G C13U
4. U7G U8A U10G C12A
5. U7G U8C G9U U10G U11A C13U
6. U7G U8A G9C U11G C12U C13A
7. U7A U8C G9A U10C C12G C13U
8. U8G G9C U10A

**A:**
1. 1.19
2. 1.13
3. 1.11
4. 1.03
5. 1.12
6. 1.05
7. 1.23
8. 1.13

Hi there! I need aptazyme ON/OFF ratio for each item below, if you can.
1. U7A G9U U10G U11C C12G C13G
2. U8G U11G C12G C13U
3. U7C G9C U10C C12U C13G
4. U7G U8C G9U U11A C13A
5. U8A G9U U10A

**A:**
[1.17, 1.2, 1.07, 1.22, 1.31]
